// data source = patent US6462038B1

- System: hAR (Homo sapiens, UniProt P10275)
- Construct: expressed in transfected cells; host or cells: CV-1 cells (African green monkey kidney fibroblasts)
- Sequence (P10275 whole entry): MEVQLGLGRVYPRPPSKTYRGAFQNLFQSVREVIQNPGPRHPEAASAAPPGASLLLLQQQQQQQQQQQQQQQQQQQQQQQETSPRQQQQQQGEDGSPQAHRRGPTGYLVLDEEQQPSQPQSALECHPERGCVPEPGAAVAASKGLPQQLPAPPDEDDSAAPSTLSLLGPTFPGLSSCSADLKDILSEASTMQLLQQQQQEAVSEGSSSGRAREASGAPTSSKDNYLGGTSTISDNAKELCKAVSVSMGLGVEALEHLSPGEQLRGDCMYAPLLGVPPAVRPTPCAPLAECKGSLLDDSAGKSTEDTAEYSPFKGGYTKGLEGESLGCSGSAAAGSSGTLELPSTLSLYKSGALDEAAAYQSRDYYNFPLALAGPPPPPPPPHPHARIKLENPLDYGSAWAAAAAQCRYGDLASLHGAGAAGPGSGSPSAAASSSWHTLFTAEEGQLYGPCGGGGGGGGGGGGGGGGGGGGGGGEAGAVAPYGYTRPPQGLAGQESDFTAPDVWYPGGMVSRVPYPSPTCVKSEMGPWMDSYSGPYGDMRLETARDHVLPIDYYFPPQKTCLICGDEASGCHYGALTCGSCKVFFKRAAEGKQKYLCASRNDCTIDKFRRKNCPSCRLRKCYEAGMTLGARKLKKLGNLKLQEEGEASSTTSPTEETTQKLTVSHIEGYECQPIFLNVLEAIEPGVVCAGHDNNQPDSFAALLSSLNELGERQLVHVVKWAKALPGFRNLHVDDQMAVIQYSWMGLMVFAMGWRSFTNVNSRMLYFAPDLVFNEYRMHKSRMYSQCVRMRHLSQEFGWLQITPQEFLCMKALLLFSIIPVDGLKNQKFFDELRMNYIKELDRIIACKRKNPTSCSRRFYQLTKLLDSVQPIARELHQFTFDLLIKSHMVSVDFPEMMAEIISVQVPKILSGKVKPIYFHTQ
- Method notes: co-transfection assay, AR agonist, CV-1 cells
- Assay type: cell-based
This listing pairs molecules with measured pEC50.
Keep in mind that pEC50 stands for -log10 of concentration in molar terms.

Field: example entries. Status: answers known.
Molecule	pEC50
O=c1[nH]c2cc3c(cc2c(C(F)(F)F)c1F)N(CC(F)(F)F)CCO3	8.40
CC[C@H]1Oc2cc3[nH]c(=O)cc(C(F)(F)F)c3cc2N(CC(F)(F)F)[C@H]1C (racemic)	5.87

Then this molecule:
Data point: CC(=O)OCC1COc2cc3[nH]c(=O)cc(C(F)(F)F)c3cc2N1CC(F)(F)F (racemic) ; pEC50 = 7.51
